Value source: paper PMC5779224

B1: AnkB_AI-a peptide (aa 1623–1635) [human] / AnkB_MBD (AnkB ANK repeats only, aa 28–827) [human] (parent complex)
chain 1: HPPIVSEEDISVG
chain 2: KSDSNASFLRAARAGNLDKVVEYLKGGIDINTCNQNGLNALHLAAKEGHVGLVQELLGRGSSVDSATKKGNTALHIASLAGQAEVVKVLVKEGANINAQSQNGFTPLYMAAQENHIDVVKYLLENGANQSTATEDGFTPLAVALQQGHNQAVAILLENDTKGKVRLPALHIAARKDDTKSAALLLQNDHNADVQSKMMVNRTTESGFTPLHIAAHYGNVNVATLLLNRGAAVDFTARNGITPLHVASKRGNTNMVKLLLDRGGQIDAKTRDGLTPLHCAARSGHDQVVELLLERGAPLLARTKNGLSPLHMAAQGDHVECVKHLLQHKAPVDDVTLDYLTALHVAAHCGHYRVTKLLLDKRANPNARALNGFTPLHIACKKNRIKVMELLVKYGASIQAITESGLTPIHVAAFMGHLNIVLLLLQNGASPDVTNIRGETALHMAARAGQVEVVRCLLRNGALVDARAREEQTPLHIASRLGKTEIVQLLLQHMAHPDAATTNGYTPLHISAREGQVDVASVLLEAGAAHSLATKKGFTPLHVAAKYGSLDVAKLLLQRRAAADSAGKNGLTPLHVAAHYDNQKVALLLLEKGASPHATAKNGYTPLHIAAKKNQMQIASTLLNYGAETNIVTKQGVTPLHLASQEGHTDMVTLLLDKGANIHMSTKSGLTSLHLAAQEDKVNVADILTKHGADQDAHTKLGYTPLIVACHYGNVKMVNFLLKQGANVNAKTKNGYTPLHQAAQQGHTHIINVLLQHGAKPNATTANGNTALAIAKRLGYISVVDTLKVVTEEVTTTTTTI

- Variants of: B1
- procedureDetails: fluorescence polarisation; parent: 7.3e+03 nM
measurementName: pKd
Convention used: pKd is expressed as -log10 of the molar concentration.

Prompt line: Report pKd for chain 2 R10E, chain 2 R13E
Response line: 4.36
